Biological target: human ENT1 (Homo sapiens)
Construct: JAR cells expressing ENT1 were purchased from ATCC; host or cells: JAR cells
Sequence (Q99808 1-456): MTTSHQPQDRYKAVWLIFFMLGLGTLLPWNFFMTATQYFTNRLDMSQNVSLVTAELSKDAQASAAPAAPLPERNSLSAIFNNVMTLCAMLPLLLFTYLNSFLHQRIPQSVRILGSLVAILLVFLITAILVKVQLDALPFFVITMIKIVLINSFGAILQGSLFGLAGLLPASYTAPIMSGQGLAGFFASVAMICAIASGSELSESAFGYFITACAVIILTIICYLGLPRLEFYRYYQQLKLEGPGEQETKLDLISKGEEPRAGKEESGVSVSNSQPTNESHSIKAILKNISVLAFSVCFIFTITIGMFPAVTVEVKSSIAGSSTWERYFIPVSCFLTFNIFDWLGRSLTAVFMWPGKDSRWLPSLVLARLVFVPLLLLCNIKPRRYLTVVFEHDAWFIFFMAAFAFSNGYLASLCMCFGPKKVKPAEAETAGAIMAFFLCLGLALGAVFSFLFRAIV
Assay: ENT1 binding assay (competition with Sahenta-DY647 on JAR cells)
Details: competition with SAHENTA-DY647 binding; IC50 categorized; read-out: Binding Assay IC50
pIC50: −log10 of the molar value.
assay_readout: pIC50

Look up and state reported pIC50 for C[C@H]1O[C@@H](n2cnc3c(SCc4cnc(C(F)(F)F)nc4)ncnc32)[C@H](O)[C@@H]1O
< 6.30

Look up and state reported pIC50 for NC(=O)COC[C@H]1O[C@@H](n2cnc3c(OCCc4ccc([N+](=O)[O-])cc4)ncnc32)[C@H](O)[C@@H]1O
6.30 to 7.70

Look up and state reported pIC50 for C[C@H]1O[C@@H](n2cnc3c(OCc4ccc(C#N)cc4)nc(Cl)nc32)[C@H](O)[C@@H]1O
< 6.30

Look up and state reported pIC50 for C[C@H]1O[C@@H](n2c(N[C@H]3CC[C@@H](O)CC3)nc3c(N4CCc5ccccc5C4)ncnc32)[C@H](O)[C@@H]1O
6.30 to 7.70

Look up and state reported pIC50 for C[C@H]1O[C@@H](n2c(N[C@H]3CCC(F)(F)C3)nc3c(OCc4ccc(C#N)cc4)ncnc32)[C@H](O)[C@@H]1O
7.70 to 9.00

Look up and state reported pIC50 for O=[N+]([O-])c1ccc(COc2ncnc3c2ncn3[C@@H]2O[C@H](COCCO)[C@@H](O)[C@H]2O)cc1
6.30 to 7.70

Look up and state reported pIC50 for C[C@H]1O[C@@H](n2c(NCCOc3ccccc3)nc3c(OCc4ccc(OC(F)F)cc4)ncnc32)[C@H](O)[C@@H]1O
7.70 to 9.00

Look up and state reported pIC50 for C[C@H]1O[C@@H](n2cnc3c(SCc4cccnn4)ncnc32)[C@H](O)[C@@H]1O
< 6.30

Look up and state reported pIC50 for CC(NC(=O)c1ncnc2c1ncn2[C@@H]1O[C@H](C)[C@@H](O)[C@H]1O)c1ccc([N+](=O)[O-])cc1 (stereo partly drawn)
< 6.30

Look up and state reported pIC50 for CC(=O)N1CCC(Nc2nc3c(OCc4ccc(C#N)cc4)ncnc3n2[C@@H]2O[C@H](C)[C@@H](O)[C@H]2O)CC1
> 9.00

Look up and state reported pIC50 for C[C@H]1O[C@@H](n2cnc3c(/C=C/c4ccc([N+](=O)[O-])cc4)ncnc32)[C@H](O)[C@@H]1O
7.70 to 9.00

Look up and state reported pIC50 for C[C@H]1O[C@@H](n2cnc3c(OCc4ccc(OCCF)cc4)ncnc32)[C@H](O)[C@@H]1O
< 6.30

Look up and state reported pIC50 for C[C@H]1O[C@@H](n2c(NC3CC3)nc3c(N4CCc5ccc(C#N)cc5C4)ncnc32)[C@H](O)[C@@H]1O
6.30 to 7.70

Look up and state reported pIC50 for CC(C)NC(=O)c1ccc(CNc2ncnc3c2ncn3[C@@H]2O[C@H](C)[C@@H](O)[C@H]2O)cc1
< 6.30

Look up and state reported pIC50 for C[C@H]1O[C@@H](n2c(C(=O)NC3CCCC3)nc3c(OCc4ccc([N+](=O)[O-])cc4)ncnc32)[C@H](O)[C@@H]1O
6.30 to 7.70

Look up and state reported pIC50 for C[C@H]1O[C@@H](n2cnc3c(SCc4ccc([N+](=O)[O-])cc4)ncnc32)[C@H](O)[C@@H]1O
7.70 to 9.00

Look up and state reported pIC50 for C[C@H]1O[C@@H](n2cnc3c(SCc4ccc(OCC(F)(F)F)cc4)ncnc32)[C@H](O)[C@@H]1O
6.30 to 7.70

Look up and state reported pIC50 for C[C@H]1O[C@@H](n2c(N[C@H]3CC[C@](C)(O)CC3)nc3c(OCc4ccc(C(F)(F)F)cc4)ncnc32)[C@H](O)[C@@H]1O
7.70 to 9.00

Look up and state reported pIC50 for C[C@H]1O[C@@H](n2cnc3c(NCc4cccc(-c5ncco5)c4)ncnc32)[C@H](O)[C@@H]1O
< 6.30

Look up and state reported pIC50 for O=[N+]([O-])c1ccc(CCOc2ncnc3c2ncn3[C@@H]2O[C@H](COCCO)[C@@H](O)[C@H]2O)cc1
6.30 to 7.70

Look up and state reported pIC50 for C[C@H]1O[C@@H](n2c(NC3CCOCC3)nc3c(N4CCc5ccccc5C4)ncnc32)[C@H](O)[C@@H]1O
6.30 to 7.70

Look up and state reported pIC50 for C[C@H]1O[C@@H](n2cnc3c(NCc4ccc(N5CCOCC5)cc4)ncnc32)[C@H](O)[C@@H]1O
< 6.30

Look up and state reported pIC50 for C[C@H]1O[C@@H](n2c(NCc3cnn(C)c3)nc3c(OCc4ccc(OC(F)F)cc4)ncnc32)[C@H](O)[C@@H]1O
7.70 to 9.00

Look up and state reported pIC50 for CN(CCO)C(=O)[C@H]1O[C@@H](n2cnc3c(OCc4ccc([N+](=O)[O-])cc4)ncnc32)[C@H](O)[C@@H]1O
< 6.30

Look up and state reported pIC50 for C[C@H]1O[C@@H](n2c(NC3CCCC3)nc3c(OCc4ccc(C#N)cc4)ncnc32)[C@H](O)[C@@H]1O
> 9.00

Look up and state reported pIC50 for COCCCNc1nc2c(OCc3ccc(OC(F)F)cc3)ncnc2n1[C@@H]1O[C@H](C)[C@@H](O)[C@H]1O
7.70 to 9.00

Look up and state reported pIC50 for C[C@H]1O[C@@H](n2c(NC3CCS(=O)(=O)CC3)nc3c(N4CCc5ccc([N+](=O)[O-])cc5C4)ncnc32)[C@H](O)[C@@H]1O
> 9.00
